B1: mRNA-splicing (parent)
chain: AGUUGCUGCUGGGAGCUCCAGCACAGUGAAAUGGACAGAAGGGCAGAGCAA

variants of: B1; experiment: exon inclusion enrichment index; higher = more inclusion; WT1 exon 5 minigene, HEK293
Threshold rule: exon inclusion enrichment index greater than or equal to 0.05 is Y; below that, N.

Some solved entries appear below for comparison.
> print(dat)
              variant.annotation  class
1     C6A U7A C9A U10A G43C C44U      Y
2  G5A C6U U7A G8U C9A A35C C36U      N

Query block: State whether the measured exon inclusion enrichment index reaches 0.05, counting equality as reaching it, for G5A C6G U7G C9A U32G G33C
Result block: N

Query block: Entry G5A C6U U7A G8U C9A U17G please
Result block: N
